Target: mouse TAAR1 (Mus musculus (Mouse), UniProt Q923Y8)
Sequence (Q923Y8 whole entry): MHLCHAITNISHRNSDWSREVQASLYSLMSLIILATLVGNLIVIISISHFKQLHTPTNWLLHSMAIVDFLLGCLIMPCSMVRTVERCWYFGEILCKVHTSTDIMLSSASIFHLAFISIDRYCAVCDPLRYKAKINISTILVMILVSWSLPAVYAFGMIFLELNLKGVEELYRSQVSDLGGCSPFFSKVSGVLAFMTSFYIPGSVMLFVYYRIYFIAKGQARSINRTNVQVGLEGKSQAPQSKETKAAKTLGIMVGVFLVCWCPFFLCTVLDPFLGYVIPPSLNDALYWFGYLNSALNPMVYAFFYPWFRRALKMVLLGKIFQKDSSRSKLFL
Test: Radioligand binding assay on mouse TAAR1
Conditions: mouse TAAR1, HEK-293 membranes; first value of the pair (before the slash); read-out: Ki (μM) mouse/rat
Where a name gives a salt, the structure may show the parent alone.
RECORDED METRIC: Ki (µM)

O=C(Nc1ccc([C@H]2CNCCO2)cc1Cl)c1ccc(Cl)cc1 :: 0.0024
N#Cc1cccc(CNC(=O)Nc2ccc([C@@H]3CNCCO3)cc2F)c1 :: 0.0074
O=C(Nc1ccc([C@@H]2CNCCO2)cc1F)c1n[nH]c2cc(F)ccc12 :: 0.001
N#Cc1ccc(-n2cc(C(=O)Nc3ccc([C@H]4CNCCO4)c(Cl)c3)cn2)cc1 [Example 105, hydrochloride] :: 0.0032
O=C(Nc1ccc([C@@H]2CNCCO2)cc1F)c1cnn(-c2ccc(F)cc2)c1 :: 0.0032
CCOc1ccc(C(=O)Nc2ccc([C@@H]3CNCCO3)c(F)c2)cn1 [Example 85, hydrochloride] :: 0.0033
Cc1cc([C@@H]2CNCCO2)ccc1NC(=O)c1ccc(Cl)nc1 :: 0.028
O=C(Nc1ccc([C@@H]2CNCCO2)c(F)c1)c1ccnc(C(F)(F)F)c1 [Example 83, hydrochloride] :: 0.006
CCOc1ccc(C(=O)Nc2ccc([C@H]3CNCCO3)cc2F)cn1 :: 0.0042
O=C(Nc1ccc(Cl)nc1)Nc1ccc(C2CCCNC2)cc1Cl (racemic) :: 0.0015
O=C(Nc1ccc(C(F)(F)F)cn1)Nc1ccc([C@H]2CNCCO2)cc1Cl :: 0.0015
Cc1cc(C(=O)Nc2ccc([C@H]3CNCCO3)cc2F)cc(C#N)n1 [Example 113, hydrochloride] :: 0.0481
Cn1nc(-c2ccccc2)cc1C(=O)Nc1ccc([C@@H]2CNCCO2)cc1F :: 0.0254
CCOc1cc(C(=O)Nc2ccc([C@@H]3CNCCO3)c(Cl)c2)ccn1 [Example 91, hydrochloride] :: 0.0053
N#Cc1ccc(-n2cc(C(=O)Nc3ccc([C@H]4CNCCO4)cc3Cl)cn2)cc1 [Example 103, hydrochloride] :: 0.0052
O=C(Nc1ccc([C@H]2CNCCO2)cc1F)c1cnn(-c2ccc(OC(F)F)cc2)c1 :: 0.0016
O=C(Nc1ccc([C@@H]2CNCCO2)c(F)c1)c1cnn(-c2ccc(OC(F)F)cc2)c1 [Example 86, hydrochloride] :: 0.0023
N#Cc1cc(NC(=O)Nc2ccc([C@@H]3CNCCO3)cc2F)ccc1F :: 0.0014
O=C(Nc1ccc([C@H]2CNCCO2)c(Cl)c1)c1cnn(-c2ccc(OC(F)F)cc2)c1 [Example 96, hydrochloride] :: 0.0013
O=C(Nc1ccc([C@@H]2CNCCO2)cc1F)c1ccn(-c2ccc(F)cc2)n1 :: 0.0026
COc1ccc(C#N)cc1NC(=O)Nc1ccc([C@@H]2CNCCO2)cc1Br :: 0.0039
O=C(Nc1cnc(C(F)(F)F)nc1)Nc1ccc([C@@H]2CNCCO2)cc1Br :: 0.0056
N#Cc1cc(F)cc(NC(=O)Nc2ccc([C@H]3CNCCO3)cc2F)c1 :: 0.0012
N#Cc1ccc(-n2cc(C(=O)Nc3ccc([C@H]4CNCCO4)cc3F)cn2)c(F)c1 [Example 110, hydrochloride] :: 0.0088
O=C(Nc1ccc([C@H]2CNCCO2)cc1Cl)c1ccc(Cl)nc1 :: 0.0139
O=C(Nc1ccc(Cl)nc1)Nc1ccc(C2CCNC2)cc1Cl (racemic) :: 0.0029
O=C(Nc1cnc(C(F)(F)F)nc1)Nc1ccc([C@@H]2CNCCO2)cc1Cl :: 0.0049
N#Cc1cccc(NC(=O)Nc2ccc([C@@H]3CNCCO3)cc2F)c1F :: 0.0031
O=C(Nc1ccc(C2CCCNC2)cc1Cl)c1ccc(Cl)nc1 (racemic) :: 0.0164
O=C(Nc1ccc([C@H]2CNCCO2)c(F)c1)c1cnn(-c2ccc(C(F)(F)F)nc2)c1 [Example 130, hydrochloride] :: 0.0075
O=C(Nc1ccc([C@@H]2CNCCO2)c(Cl)c1)c1cnn(-c2ccc(OC(F)F)cc2)c1 [Example 93, hydrochloride] :: 0.0005
O=C(Nc1ccc([C@H]2CNCCO2)cc1Cl)c1cnn(-c2cncc(C(F)(F)F)n2)c1 [Example 126, hydrochloride] :: 0.0202
NC(=O)c1cc(C(=O)Nc2ccc([C@H]3CNCCO3)c(F)c2)cc(Cl)n1 [Example 116, hydrochloride] :: 0.0512
